System: SK-MEL-2 melanoma
Test: NCI tumour cell line growth inhibition, 48 h
Lab note: anything with TGI at or over 30 µM counts as yes (1); the rest go in no (0).

Example cases with answers are listed next.
| COMPOUND | GROUP |
| --- | --- |
| Cc1nc2c(n1C)C(=O)c1ccccc1C2=O | yes (1) |
| CC1(C)CC(=O)C2(CC(CSc3ccccc3)C(CS(=O)(=O)c3ccccc3)C2)C(=O)C1 (stereo unspecified) | yes (1) |
| C=C=C(CC(CC(=C)Br)(C(=O)OC)C(=O)OC)S(=O)(=O)c1ccccc1 | no (0) |
| O=C1C=CC(=O)c2c(O)c(NCCOCCO)c(Cl)c(O)c21 | no (0) |
| CN1CCc2c1nc(-c1ccc(Cl)cc1)c1c2N(C)CC1 | yes (1) |

Please look at the following compound next.
Problem: Would you say `CN(C)CCSS(=O)(=O)O` shows TGI at minimum 30 µM?
Solution: yes (1)

The values you see were collected from PubChem BioAssay (NCI).
